Kindly supply the reported protein stability index values for the records listed here.
B1: TFE3 (parent)
chain: ELPNIKREISETEAKALLKERQKK

# Variants of: B1
# protocol: protein stability index of a GFP-peptide fusion (GPS, HEK-293T) (PSI 1-6); higher = more stable;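 note: lentivirally expressed fusions sorted by FACS into six bins by GFP to DsRed ratio, PSI derived from sequencing read proportions per bin multiplied by bin number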
# run-parameters: c terminus: a fixed tail appended
Numbers only.

Use these answered entries as a reference point.
Look up protein stability index for this variant: `N4Y`
3.29

Look up protein stability index for this variant: `E1V`
3.57

Look up protein stability index for this variant: `K6N`
2.81

Look up protein stability index for this variant: `S10R`
2.91

The following variants each have a reported value; give each one's protein stability index.
1. R21P
2. L17F
3. A16P
4. A16N
5. K24N
6. K6Y
7. L2P
8. K23E

2.32
2.38
4.2
4.09
3.05
2.65
5.74
2.64

The following variants each have a reported value; give each one's protein stability index.
1. S10Y
2. E1L
3. I5S
4. E11D

1: 2.35; 2: 2.29; 3: 4.98; 4: 2.45
